These compounds were tested on cGMP-specific 3',5'-cyclic phosphodiesterase (Homo sapiens); pKi is the recorded read-out.
Units for pKi: none; it is -log10 of a concentration expressed in mol/L.

A selection of reference data follows.
Problem: Value lookup for pKi; key = O=C(c1ccc(-c2ccc([N+](=O)[O-])cc2)o1)N1CCc2c([nH]c3ccccc23)C1c1ccc2c(c1)OCO2 (stereo unspecified)
Result: 7.11

Problem: Field entry: Nc1cccc(-c2ccc(C(=O)N3CCc4c([nH]c5ccccc45)C3c3ccc4c(c3)OCO4)o2)c1 (stereo unspecified)
Result: 6.75

Problem: Field entry: O=C(c1ccc(-c2ccccc2[N+](=O)[O-])o1)N1CCc2c([nH]c3ccccc23)C1c1ccc2c(c1)OCO2 (stereo unspecified)
Result: 6.66

More entries:
Problem: Value lookup for pKi; key = CS(=O)(=O)c1ccc(-c2cnc(N3CCc4c([nH]c5ccccc45)C3c3ccc4c(c3)OCO4)nc2)c([N+](=O)[O-])c1 (stereo unspecified)
Result: 6.88

Problem: Field entry: CN1CCN(C(=O)c2ccc(-c3ccc(C(=O)N4CCc5c([nH]c6ccccc56)C4c4ccc5c(c4)CCO5)o3)cc2)CC1 (stereo unspecified)
Result: 8.09

Problem: Field entry: COc1ccc(-c2cnc(N3CCc4c([nH]c5ccccc45)C3c3ccc4c(c3)CCO4)nc2)cc1 (stereo in doubt; 15f)
Result: 6.73
